Reference source for all entries: paper PMC7254805

Test: Oral bioavailability in mice, plasma RP-HPLC
Type: in vivo, BALB/c mice
Details: BALB/c, mouse, plasma, po, 500 mg/kg
result type: half-life (h)
Form entry: value (h) — number only.

// half-life lookup, key: COc1ccc(CC(CC(=O)O)C(=O)O)cc1OC (stereo not shown)
2

* * *

Test: Aqueous solubility
Format: physicochemical
Conditions: water
result type: solubility (µg/mL)
Form entry: value (µg/mL) — number only.

// solubility lookup, key: COC[C@@H](Cc1ccc(OC)c(OC)c1)[C@@H](COC)Cc1ccc(OC)c(OC)c1 [phyllanthin, reference compound]
250

* * *

Experiment: Oral bioavailability in mice, plasma RP-HPLC
Format: in vivo, BALB/c mice
Details: BALB/c, mouse, plasma, po, 500 mg/kg
result type: Tmax (h)
Form entry: value (h) — number only.

// Tmax lookup, key: COc1ccc(CC(CC(=O)O)C(=O)O)cc1OC (stereo not shown)
1
